Provenance of the data: ChEMBL document CHEMBL5724914

# TEST NAME: The drug is tested on Z-028 corresponding to mouse gut metagenome with ENA study accession number: PRJEB37062 and ENA sample accession number: ERS12561827 for biotransformation under anaerobic condition. The drug concentrations were measured over 9 timepoints collected between 0 and 24 hours of incubation by liquid-chromatography-coupled mass spectrometry (LC–MS); note: call rule not given here
# TEST PARAMETERS: 2 µM
PARAMETER MEASURED: Bacterial Biotransformation

Reference set (5 entries):
CC[C@@]1(O)C(=O)OCc2c1cc1n(c2=O)Cc2cc3c(CN(C)C)c(O)ccc3nc2-1 [TOPOTECAN]	Compound NOT metabolized
CCS(=O)(=O)CCn1c([N+](=O)[O-])cnc1C [TINIDAZOLE]	Compound metabolized
C[N+]12CCC(CC1)C(OC(=O)C(O)(c1ccccc1)c1ccccc1)C2.[Br-] (stereo not drawn) [CLIDINIUM BROMIDE]	Compound NOT metabolized
CC(=O)OCC(=O)[C@@]1(OC(C)=O)[C@@H](C)C[C@H]2[C@@H]3C[C@H](F)C4=CC(=O)C=C[C@]4(C)[C@@]3(F)[C@@H](O)C[C@@]21C [DIFLORASONE DIACETATE]	Compound metabolized
Cc1ccccc1C(OCCN(C)C)c1ccccc1.O=C(O)CC(O)(CC(=O)O)C(=O)O (stereo not drawn) [ORPHENADRINE CITRATE]	Compound NOT metabolized

Prompt: Give the measured Bacterial Biotransformation of CN1[C@@H]2CC[C@H]1C[C@@H](OC(=O)c1c[nH]c3ccccc13)C2 [TROPISETRON] .
Response: Compound NOT metabolized

Prompt: Give the measured Bacterial Biotransformation of CC(=O)SCC(Cc1ccccc1)C(=O)NCC(=O)OCc1ccccc1 (stereo not drawn) [RACECADOTRIL] .
Response: Compound metabolized

Prompt: Give the measured Bacterial Biotransformation of CC(C)(C)N.CCC[C@H](N[C@@H](C)C(=O)N1[C@H](C(=O)O)C[C@@H]2CCCC[C@@H]21)C(=O)OCC [PERINDOPRIL ERBUMINE] .
Response: Compound NOT metabolized
